assay: chemical genetic growth profiling, strain panel (AID 1159580);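 further: tested at 20 µM; growth read once vehicle control cultures reached saturation at 30 °C; 1 = growth at the plate median or of vehicle wells; lower values mean less growth of the strain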; conditions: S. cerevisiae deletion strains, growth OD, locus YGL248W, strain PDE1
About 2,000 (36%) of roughly 5,500 compounds were called active. Roughly 18% stayed inconclusive and do not appear here. No stated cut-off is given here; in the data, active means normalized growth mostly below about 0.91 (no sharp cut-off); inconclusive means no clear call, values can overlap the other calls; inactive means mostly above about 0.92. This is one part of the list.
Please state which outcome applies, choosing from TRUE for active, FALSE for inactive

Completed entries (count: 2):
| Compound | Label class |
| --- | --- |
| CC(=O)O[C@@H]1CC2C(C)(C)[C@@H](O)CC[C@]2(C)C2CC[C@@]3(C)[C@H](c4ccoc4)OC(=O)[C@H]4O[C@]43[C@@]21C (stereo partly drawn) | FALSE |
| COc1ccc2c(c1)OCC(Cc1ccc(OC)c(OC)c1)C2=O (stereo not drawn) | FALSE |

Lookup: Give the logged outcome of this assay for the following compound: COc1ccc(-c2cc(=O)c3c(OC)cc(OC)cc3o2)cc1
Found: FALSE

Lookup: // return assay outcome for NC(C(=O)O)C(O)C(=O)O (stereo not drawn)
Found: FALSE

Lookup: Entry O=c1cccc2n1CC1CC2CN2CCCC[C@@H]12 (stereo partly drawn) : call = ?
Found: FALSE

Lookup: What classification did CN=C(N)NCCCC(N)C(=O)O (stereo not drawn) end up with in this test?
Found: FALSE

Lookup: Dear all, I need the recorded test outcome for Clc1ccc(COC(Cn2ccnc2)c2ccc(Cl)cc2Cl)cc1 (stereo not drawn) , thank you.
Found: TRUE

Lookup: For OC[C@H]1O[C@@H](n2cnc3c(NCc4ccco4)ncnc32)[C@H](O)[C@@H]1O , what call appears in the results of this test?
Found: FALSE

Lookup: How did this test come out for NCC[C@@H](O)C(=O)N[C@@H]1C[C@H](N)[C@@H](O[C@H]2O[C@H](CN)[C@@H](O)[C@H](O)[C@H]2O)[C@H](O)[C@H]1O[C@H]1O[C@H](CO)[C@@H](O)[C@H](N)C1O (stereo partly drawn) ?
Found: FALSE

Lookup: Hey, what did the test say about NC(N)=NCCN1CCCCCCC1 ?
Found: FALSE

Lookup: Fill in: this test's call for COP(=S)(OC)Oc1ccc([N+](=O)[O-])cc1 is ___
Found: FALSE

----------
experiment: chemical genetic growth profiling, strain panel (AID 1159580);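 further: tested at 20 µM; growth read once vehicle control cultures reached saturation at 30 °C; 1 = growth at the plate median or of vehicle wells; lower values mean less growth of the strain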; conditions: S. cerevisiae deletion strains, growth OD, locus YBR229C, strain ROT2
Among all 5,500 compounds or so, about 2,000 (36%) were called active. Roughly 18% stayed inconclusive and do not appear here. Cut-off read from the data, not from the text of the source: active = normalized growth mostly below about 0.91 (no sharp cut-off); inconclusive = no clear call, values can overlap the other calls; inactive = mostly above about 0.92. The list shows a part of the results.
Outcome (select one): 1 (yes) (active), 0 (no) (inactive)

| Compound | Label class |
| --- | --- |
| Cc1cc(CC(=O)O)n(C)c1C(=O)c1ccc(Cl)cc1 | 0 (no) |
| CC(=O)O[C@H]1C[C@@H](OC(C)=O)C(C)(C)C2C[C@@H](O)[C@]3(C)C(CC[C@@]4(C)[C@H](c5ccoc5)OC(=O)[C@H]5O[C@]543)[C@]21C (some centres not stated) | 0 (no) |
| O=C1NC2(CCN(Cc3ccccc3)CC2)Oc2ccccc21 | 0 (no) |
| OC[C@H]1O[C@@H](n2cnc3c(NCc4ccco4)ncnc32)[C@H](O)[C@@H]1O | 0 (no) |
| CC(=O)c1ccc(N2C(=O)CSCC2=O)cc1 | 0 (no) |
| Cc1nn(-c2ccccc2)nc1-c1nnc(-c2ccc(Cl)cc2)o1 | 0 (no) |

Lookup: Hello, I am checking results. What call was entered for CN(C)C(=O)Oc1ccc[n+](C)c1 ?
Found: 0 (no)

Lookup: Kindly provide the recorded test outcome for the following compound: O=c1oc2ccccc2cc1[N+](=O)[O-]
Found: 1 (yes)

Lookup: Hi team, can someone confirm the assay call for CC(C)(C)NC(=S)NC1CCN(Cc2ccccc2)CC1 ?
Found: 0 (no)

Lookup: Which outcome was assigned to CC(=O)O[C@@H]1CC2C(C)(C)[C@H](O)CC[C@]2(C)C2CC[C@@]3(C)[C@H](c4ccoc4)OC(=O)C4OC43[C@@]21C (some centres not stated) in this test?
Found: 0 (no)

Lookup: Which outcome did this test record for the compound COC(=O)c1cscc1Sc1ccc(Cl)cc1 ?
Found: 0 (no)
